For each record, write down the corresponding log10 TGI.
Test system: UACC-257 melanoma
Assay: NCI tumour cell line growth inhibition, 48 h
Heads up: the numbers are on a log10 scale; they represent TGI in µM.

Consider the worked cases shown below.
> print(dat)
                                   compound       study.target  reported.value
1        c1ccc(N/N=C2\NN=C(c3ccccc3)CS2)cc1  UACC-257 melanoma            1.62
2         Cc1cc(Cl)cc(Cc2cc(Cl)cc(C)c2O)c1O  UACC-257 melanoma            1.09
3  CN(C)CCOC(=O)Nc1nc2ccc(Sc3ccccc3)cc2[nH]1  UACC-257 melanoma            1.47
4  CCOC(=O)c1cc(C2CCN(Cc3ccccc3)C2=S)c(C(=O)C=[N+]=[N-])[nH]1 (stereo unspecified)  UACC-257 melanoma            1.85
5  COc1ccc2c(c1)C(=O)c1c-2c(Nc2cccc(C(C)=O)c2)nc2ccccc12  UACC-257 melanoma            1.79

// batch mode: one log10 TGI value per listed entry
1. COc1cc(/C=C2\C[C@H]3[C@@H]4CC=C5C[C@@H](OC(C)=O)CC[C@]5(C)[C@H]4CC[C@]3(C)[C@H]2OC(C)=O)ccc1OCCN1CCCC1
2. O=C1/C(=C/c2ccc(Cl)cc2)CSC/C1=C\c1ccc(Cl)cc1
3. O=C1CCCc2ccc3c(c21)CC1(Cc2ccccc2C1)C3
4. CN1CCN(Cc2ccc(NC(=O)c3cncc(C#Cc4cnc(N)c5cnccc45)c3)cc2C(F)(F)F)CC1

1. 1.30
2. 0.71
3. 1.76
4. 0.16

Hey, just so you know, these numbers are from PubChem BioAssay (NCI).
